The origin of these recorded values is BindingDB's records for doi:10.1124/mol.64.1.143.

target: Calcium-activated potassium channel subunit beta (Sus scrofa)
Sequence (C0KY85 whole entry): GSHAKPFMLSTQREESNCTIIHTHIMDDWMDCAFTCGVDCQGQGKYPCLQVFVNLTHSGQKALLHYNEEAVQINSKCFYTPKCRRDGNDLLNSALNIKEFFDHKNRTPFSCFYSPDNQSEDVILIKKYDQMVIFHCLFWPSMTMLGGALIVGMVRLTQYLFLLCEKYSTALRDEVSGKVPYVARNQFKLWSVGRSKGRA
value-type: Ki (nM)
Answers are plain numbers, in nM.

## Task Look up and report measured Ki (Calcium-activated potassium channel subunit beta (Sus scrofa)) for the following compound: O=C1COCC2=NC3=C([C@H](c4ccc(F)c(I)c4)C12)S(=O)(=O)CC3 (some centres not stated) [A-312110]
## Result 4.9
